Sourced from patent US6630469B2

- Assay system: human 5-HT7 receptor (Homo sapiens, UniProt P34969)
- Sequence (P34969 whole entry): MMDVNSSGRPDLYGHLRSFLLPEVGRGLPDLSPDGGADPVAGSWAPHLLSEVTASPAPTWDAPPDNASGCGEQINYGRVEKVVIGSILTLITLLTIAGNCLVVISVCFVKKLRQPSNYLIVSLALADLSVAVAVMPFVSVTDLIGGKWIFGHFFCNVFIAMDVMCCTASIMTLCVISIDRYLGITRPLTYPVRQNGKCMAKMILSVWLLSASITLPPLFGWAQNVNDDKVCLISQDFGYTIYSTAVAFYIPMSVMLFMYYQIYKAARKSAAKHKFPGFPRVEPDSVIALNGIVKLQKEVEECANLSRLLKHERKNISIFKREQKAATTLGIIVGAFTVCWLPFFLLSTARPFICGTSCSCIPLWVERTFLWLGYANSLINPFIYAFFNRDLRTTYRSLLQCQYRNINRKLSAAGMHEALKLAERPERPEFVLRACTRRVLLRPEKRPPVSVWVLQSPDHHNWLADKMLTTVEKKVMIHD
pIC50: −log10 of the molar value.
Readout label: pIC50

{"Molecule": "CC[C@H](Nc1ccnc(NCCOc2ccccc2)n1)c1ccccc1", "Assay value": "≥ 7.30"}
{"Molecule": "CC(Nc1ccnc(NCCc2ccc(Cl)cc2)n1)c1ccccc1 (stereo not shown)", "Assay value": "7.00 to 7.29"}
{"Molecule": "CC[C@H](Nc1nc(N)nc(NCCc2ccccc2F)n1)c1ccccc1 [Compound 51]", "Assay value": "7.00 to 7.29"}
{"Molecule": "Clc1cccc(CNc2ccnc(NCCc3ccccc3)n2)c1", "Assay value": "6.70 to 7.00"}
{"Molecule": "c1ccc(CCNc2nccc(NCc3cccs3)n2)cc1 [Compound 27]", "Assay value": "≥ 7.30"}
{"Molecule": "CC[C@H](Nc1nc(N)nc(NCCc2cccc(C(F)(F)F)c2)n1)c1ccccc1 [Compound 36]", "Assay value": "6.70 to 7.00"}
{"Molecule": "COc1cc(CNc2ccnc(NCCOc3ccccc3)n2)cc(OC)c1", "Assay value": "6.70 to 7.00"}
{"Molecule": "C[C@H](Nc1nc(N)nc(NCCc2ccc(F)cc2)n1)c1ccc(Br)cc1 [Compound 70]", "Assay value": "≥ 7.30"}

What pIC50 value was documented for this molecule, Fc1ccc(C(F)(F)F)cc1CNc1ccnc(NCCOc2ccccc2)n1 ?
≥ 7.30

Could you do the same for Cc1ccc(CCNc2nccc(NC(C)c3ccccc3)n2)cc1 (stereo not shown) , please?
≥ 7.30

Could you do the same for CC(Nc1ccnc(NCCc2ccc(Br)cc2)n1)c1ccccc1 (stereo not shown) [Compound 9] , please?
7.00 to 7.29

Could you do the same for COc1cccc(CCNc2nccc(NC(C)c3ccccc3)n2)c1 (stereo not shown) , please?
≥ 7.30

Could you do the same for CC[C@H](Nc1nc(N)nc(NCCc2cccc(OC)c2)n1)c1ccccc1 [Compound 52] , please?
7.00 to 7.29

Could you do the same for C[C@H](Nc1nc(N)nc(NC[C@H]2C[C@@H]2c2ccc(F)cc2)n1)c1ccccc1 , please?
≥ 7.30

Could you do the same for Clc1cccc(CNc2ccnc(NCCOc3ccccc3)n2)c1 , please?
≥ 7.30

Could you do the same for Ic1cccc(CNc2ccnc(NCCc3ccccc3)n2)c1 [Compound 25] , please?
≥ 7.30

Could you do the same for c1ccc(OCCNc2nccc(NCc3cccc4c3OCO4)n2)cc1 , please?
≥ 7.30

Could you do the same for Cc1cc(N[C@@H](C)c2ccccc2)nc(NCCc2cccc(C#N)c2)n1 , please?
≥ 7.30

* * *

- Assay system: human 5-HT7 receptor (Homo sapiens, UniProt P34969)
pIC50: −log10 of the molar value.
// reported pIC50 per item

What pIC50 value was documented for this compound, CC(Nc1nccc(NCCc2c[nH]c3ccccc23)n1)c1ccccc1 (stereo not drawn) ?
7.00 to 7.29

Could you do the same for C[C@H](Nc1ccnc(NCCOc2ccccc2)n1)c1ccccc1 , please?
≥ 7.30

Could you do the same for CC[C@H](Nc1nc(N)nc(NCCc2cccc(F)c2)n1)c1ccccc1 , please?
≥ 7.30

Could you do the same for CC[C@H](Nc1nc(N)nc(NCCc2ccccc2)n1)c1ccccc1 , please?
≥ 7.30

Could you do the same for CC(CNc1nc(N)nc(N[C@@H](C)c2ccccc2)n1)c1ccccc1 (stereo partly drawn) , please?
6.70 to 7.00

* * *

Listed here: molecules with reported IC50 for human 5-HT7 receptor (Homo sapiens).

Use these answered entries as a reference point.
{"Molecule": "Fc1cccc(CNc2ccnc(NCCc3ccccc3)n2)c1", "Assay system": "human 5-HT7 receptor (Homo sapiens)", "IC50": "≤ 50 nM"}
{"Molecule": "c1ccc(CCNc2nccc(NCc3ccccc3)n2)cc1", "Assay system": "human 5-HT7 receptor (Homo sapiens)", "IC50": "≤ 50 nM"}
{"Molecule": "Fc1ccc(CNc2ccnc(NCCc3ccccc3)n2)cc1Cl", "Assay system": "human 5-HT7 receptor (Homo sapiens)", "IC50": "≤ 50 nM"}
{"Molecule": "c1ccc(CCNc2nccc(NCc3cccc4c3OCO4)n2)cc1", "Assay system": "human 5-HT7 receptor (Homo sapiens)", "IC50": "≤ 50 nM"}
{"Molecule": "FC(F)(F)c1cccc(CNc2ccnc(NCCOc3ccccc3)n2)c1", "Assay system": "human 5-HT7 receptor (Homo sapiens)", "IC50": "≤ 50 nM"}

What IC50 value was documented for this molecule, CC(Nc1ccnc(NCCSc2ccccc2)n1)c1ccccc1 (centres unmarked) ?
51 to 100 nM

Could you do the same for CC(Nc1ccnc(NCCOc2ccccc2)n1)c1ccc(Cl)cc1 (centres unmarked) , please?
≤ 50 nM

Could you do the same for Cc1cccc(CNc2ccnc(NCCc3ccccc3)n2)c1 , please?
≤ 50 nM

Could you do the same for C[C@H](Nc1nc(N)nc(NCCc2cccc(O)c2)n1)c1ccccc1 [Compound 73] , please?
≤ 50 nM

Could you do the same for CC(Nc1ccnc(NCCCc2ccccc2)n1)c1ccccc1 (centres unmarked) , please?
51 to 100 nM

Could you do the same for CC(Nc1ccnc(NCCc2cccc(Br)c2)n1)c1ccccc1 (centres unmarked) [Compound 8] , please?
51 to 100 nM

Could you do the same for C[C@H](Nc1nc(N)nc(NCCOc2ccccc2)n1)c1cccc2ccccc12 [Compound 42] , please?
51 to 100 nM

Could you do the same for Clc1ccc(CNc2ccnc(NCCc3ccccc3)n2)cc1Cl , please?
101 to 200 nM

Could you do the same for CC(Nc1ccnc(N(C)CCc2c[nH]c3ccccc23)n1)c1ccccc1 (centres unmarked) [Compound 30] , please?
≤ 50 nM

Could you do the same for Brc1cccc(CNc2ccnc(NCCc3ccccc3)n2)c1 [Compound 26] , please?
≤ 50 nM

Could you do the same for c1ccc(OCCNc2nccc(NCc3cccnc3)n2)cc1 [Compound 20] , please?
≤ 50 nM

Could you do the same for Cc1ccc(CCNc2nc(N)nc(N[C@@H](C)c3ccccc3)n2)cc1 [Compound 72] , please?
≤ 50 nM

Could you do the same for Clc1ccccc1CNc1ccnc(NCCc2ccccc2)n1 , please?
≤ 50 nM

Could you do the same for CC(Nc1ccnc(NCCC2=CCCCC2)n1)c1ccccc1 (centres unmarked) [Compound 23] , please?
≤ 50 nM

Could you do the same for Cc1ccc(CCNc2nc(N)nc(N[C@@H](C)c3ccc([N+](=O)[O-])cc3)n2)cc1 [Compound 79] , please?
≤ 50 nM

Could you do the same for CC(Nc1ccnc(NCCc2cccc3c2OCO3)n1)c1ccccc1 (centres unmarked) , please?
101 to 200 nM

Could you do the same for CC(Nc1nc(N)nc(NC[C@@H]2C[C@H]2c2ccncc2)n1)c1ccccc1 (mixture of isomers) , please?
≤ 50 nM

Could you do the same for C[C@H](Nc1nc(N)nc(NCCc2ccc(F)cc2)n1)c1ccc([N+](=O)[O-])cc1 [Compound 74] , please?
≤ 50 nM

* * *

Listed here: compounds with reported IC50 for human 5-HT7 receptor (Homo sapiens, UniProt P34969).

What IC50 value was documented for this compound, C[C@H](Nc1nc(N)nc(NCCc2cccc(F)c2)n1)c1ccccc1 ?
≤ 50 nM

Could you do the same for CC(Nc1ccnc(NCCc2ccc(F)cc2)n1)c1ccccc1 (stereo not shown) , please?
≤ 50 nM

Could you do the same for C[C@H](Nc1nc(N)nc(NCCc2ccc(F)cc2)n1)c1ccc(F)cc1 , please?
≤ 50 nM

Could you do the same for Cc1ccc(CNc2ccnc(NCCc3ccccc3)n2)cc1Cl , please?
101 to 200 nM

Could you do the same for Cc1cc(N[C@@H](C)c2ccccc2)nc(NCCc2ccc(Cl)cc2)n1 , please?
≤ 50 nM

Could you do the same for COc1cccc(CCNc2nc(N)nc(N[C@@H](C)c3ccccc3)n2)c1 , please?
51 to 100 nM

Could you do the same for C[C@H](Nc1nc(N)nc(NCCc2ccccc2)n1)c1ccccc1 , please?
≤ 50 nM

Could you do the same for C[C@H](Nc1nc(N)nc(NCCc2ccc(O)cc2)n1)c1ccc([N+](=O)[O-])cc1 , please?
≤ 50 nM

Could you do the same for C[C@@H](Nc1ccnc(NCCc2ccccc2)n1)c1ccccc1 , please?
101 to 200 nM

Could you do the same for CC[C@H](Nc1ccnc(NCCc2ccccc2)n1)c1ccccc1 , please?
≤ 50 nM

* * *

Listed here: compounds with reported IC50 for human 5-HT7 receptor (Homo sapiens).

Use these answered entries as a reference point.
{"Compound": "c1ccc(CCNc2nccc(NCc3ccncc3)n2)cc1", "Assay value": "101 to 200 nM"}
{"Compound": "C[C@H](Nc1ccnc(NCCOc2ccccc2)n1)c1ccc(Br)cc1", "Assay value": "≤ 50 nM"}
{"Compound": "Cc1cc(N[C@@H](C)c2ccccc2)nc(NCCc2cccc(Br)c2)n1", "Assay value": "≤ 50 nM"}

Next, consider the following compound.
What IC50 value was documented for this compound, CC(Nc1ccnc(NCCc2ccc(O)cc2)n1)c1ccccc1 (stereo not shown) ?
≤ 50 nM
